# reported pIC50; entries follow
Target: SOS1-KRas (G12C) (Homo sapiens (Human), UniProt Q07889)
Sequence (Q07889 564-1049, stated change not applied): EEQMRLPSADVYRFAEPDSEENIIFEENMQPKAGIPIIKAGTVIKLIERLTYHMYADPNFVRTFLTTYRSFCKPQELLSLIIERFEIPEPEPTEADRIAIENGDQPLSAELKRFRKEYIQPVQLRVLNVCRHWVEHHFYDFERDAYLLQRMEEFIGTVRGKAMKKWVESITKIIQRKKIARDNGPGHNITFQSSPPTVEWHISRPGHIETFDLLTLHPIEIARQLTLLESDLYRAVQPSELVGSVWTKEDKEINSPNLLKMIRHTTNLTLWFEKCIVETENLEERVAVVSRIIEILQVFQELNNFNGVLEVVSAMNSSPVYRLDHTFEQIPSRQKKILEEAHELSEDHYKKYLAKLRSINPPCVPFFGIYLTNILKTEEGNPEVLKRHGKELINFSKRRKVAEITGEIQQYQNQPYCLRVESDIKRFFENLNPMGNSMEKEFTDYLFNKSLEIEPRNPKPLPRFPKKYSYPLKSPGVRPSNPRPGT
Assay: SOS1-KRas (G12C) FRET Assay
Format: binding
Details: inhibition of SOS1:KRAS interaction; 0.5 nM His10-SOS1 (res. 564-1049), 2.5 nM GST-KRAS (res. 1-169, G12C); 2 hrs at RT
pIC50: −log10 of the molar value.
quantity_name: pIC50

INSERT INTO results (molecule, recorded_value) VALUES
  ('C[C@@H](NC(=O)c1cc(N2CCOCC2)c(F)cc1N[C@@H]1[C@@H]2C[C@H]1CN(C)C2)c1cccc(C(F)F)c1F', 7.00),
  ('C[C@@H](NC(=O)c1cc(N2CCOCC2)c(F)cc1NCCN(C)C)c1cccc(C(F)F)c1F', 7.20),
  ('C[C@@H](NC(=O)c1cc(C23CC(C2)C3)c(F)cc1N[C@@H]1CN2CCC1CC2)c1cccc(C(F)F)c1F', 6.46),
  ('C[C@@H](NC(=O)c1cc(N2CC3CCCC(C2)O3)c(F)cc1NC1CCN(C)CC1)c1cccc(C(F)F)c1F', 7.48),
  ('C[C@@H](NC(=O)c1cc(N2CCC2)c(F)cc1N[C@@H]1CN2CCC1CC2)c1cccc(C(F)F)c1F', 7.21),
  ('C[C@@H](NC(=O)c1cc(N2CCOCC2)c(F)cc1N[C@H]1[C@@H]2C[C@H]1CN(C)C2)c1cccc(C(F)F)c1F', 7.75),
  ('C[C@@H](NC(=O)c1cc(-c2nnco2)c(F)cc1NC1CCN(C)CC1)c1cccc(C(F)F)c1F', 7.94),
  ('C[C@@H](NC(=O)c1cc(N2CC[C@]3(CCOC3)C2)c(F)cc1NC1CCN(C)CC1)c1cccc(C(F)F)c1F (single isomer, unassigned)', 7.39),
  ('C[C@@H](NC(=O)c1cc(N2CCOCC2)c(F)cc1N[C@H]1CN2CCC1CC2)c1cccc(C(C)(F)F)c1F', 7.82),
  ('C[C@@H](NC(=O)c1cc(N2CCOCC2)c(F)cc1NC(C)(C)C#N)c1cccc(C(F)F)c1F', 6.48),
  ('C[C@@H](NC(=O)c1cc(N2CCOCC2)c(Cl)cc1N[C@H]1CN2CCC1CC2)c1cccc(C(F)F)c1F', 7.35),
  ('C[C@@H](NC(=O)c1cc(N2CC3COCC(C3)C2)c(F)cc1NC1CCN(C)CC1)c1cccc(C(F)F)c1F', 7.45),
  ('C[C@@H](NC(=O)c1cc(N2CCOCC2)c(F)cc1NC1CCNCC1)c1cccc(C(F)F)c1F', 7.66),
  ('C[C@@H](NC(=O)c1cc(C(=O)N2CCC(F)(F)CC2)c(F)cc1NC1CCN(C)CC1)c1cccc(C(F)F)c1F', 6.05);
